# System: CAL-85-1
# PROCEDURE_DETAILS: drug sensitivity score (DSS), CellTox Green (DSS (AUC-based score)); higher = stronger drug effect (viability inhibition or cytotoxicity); extreme values may be limits of the assay
# PROTOCOL_CONDITIONS: incubation time: 72 h
Below, each entry is listed with its recorded drug sensitivity score.
RECORDED_METRIC: drug sensitivity score

>>> reported_result("CC(C)(C)c1cc(NC(=O)Nc2ccc(-c3cn4c(n3)sc3cc(OCCN5CCOCC5)ccc34)cc2)no1 [Quizartinib]")
0
>>> reported_result("C#Cc1cccc(Nc2ncnc3cc(OC)c(OCCCCCCC(=O)NO)cc23)c1 [CUDC-101]")
20.1
>>> reported_result("CN1CCN(c2ccc3nc(-c4c(N)c5c(F)cccc5[nH]c4=O)[nH]c3c2)CC1 [Dovitinib]")
0
>>> reported_result("CS(=O)(=O)CCNCc1ccc(-c2ccc3ncnc(Nc4ccc(OCc5cccc(F)c5)c(Cl)c4)c3c2)o1 [Lapatinib]")
0
>>> reported_result("CN(c1ccccc1CNc1nc(Nc2ccc3c(c2)CC(=O)N3)ncc1C(F)(F)F)S(C)(=O)=O")
3.86
>>> reported_result("COc1cccc2c1C(=O)c1c(O)c3c(c(O)c1C2=O)C[C@@](O)(C(C)=O)C[C@@H]3O[C@H]1C[C@H](N)[C@H](O)[C@H](C)O1 [Daunorubicin]")
0
>>> reported_result("COc1ccc(C2=N[C@@H](c3ccc(Cl)cc3)[C@@H](c3ccc(Cl)cc3)N2C(=O)N2CCNC(=O)C2)c(OC(C)C)c1 [Nutlin-3]")
0
>>> reported_result("CCCC(CCC)C(=O)O [Valproic acid]")
0
>>> reported_result("Cc1cc(C(C)Nc2ccccc2)c2nc(N3CCOCC3)cc(=O)n2c1 (stereo unspecified) [TGX-221]")
0
>>> reported_result("FC(F)c1nc2ccccc2n1-c1nc(N2CCOCC2)nc(N2CCOCC2)n1 [ZSTK474]")
0
>>> reported_result("Nc1nccc(-c2c(-c3ccc(F)cc3)ncn2C2CCCCC2)n1")
0

* * *

Listing of recorded normalised response by entry.
# Tested on: MDA-MB-231
# PROCEDURE_DETAILS: normalised response (% of control), CellTiter-Glo; higher = more viable cells (100 = DMSO, 0 = benzethonium chloride kill control)
# PROTOCOL_CONDITIONS: incubation time: 72 h
RECORDED_METRIC: normalised response (%)

>>> reported_result("CC(=O)O[C@H]1C(=O)[C@@]2(C)[C@H]([C@H](OC(=O)c3ccccc3)[C@]3(O)C[C@H](OC(=O)[C@H](O)[C@@H](NC(=O)c4ccccc4)c4ccccc4)C(C)=C1C3(C)C)[C@]1(OC(C)=O)CO[C@@H]1C[C@@H]2O [Paclitaxel] (1000 nM)")
25.3
>>> reported_result("CCCC(CCC)C(=O)O [Valproic acid] (1000000 nM)")
98.6
>>> reported_result("COC1=CC(c2cc3ccccc3[nH]2)=N/C1=C\\c1[nH]c(C)cc1C [Obatoclax] (10000 nM)")
66.9
>>> reported_result("CS(=O)(=O)OCCCCOS(C)(=O)=O [Busulfan] (100000 nM)")
101
>>> reported_result("C[C@@]1(C(=O)Nc2ccc(F)nc2)CCCN1c1nc(Nc2cc(C3CC3)n[nH]2)c2cccn2n1 (10000 nM)")
26.1
>>> reported_result("Nc1nccc(-c2c(-c3ccc(F)cc3)ncn2C2CCCCC2)n1 (10000 nM)")
84.4
>>> reported_result("C[C@@H]1CCN(C(=O)CC#N)C[C@@H]1N(C)c1ncnc2[nH]ccc12 [Tofacitinib] (5000 nM)")
114
>>> reported_result("COC(=O)C[C@](O)(CCCC(C)(C)O)C(=O)O[C@@H]1C(OC)=C[C@]23CCCN2CCc2cc4c(cc2[C@H]13)OCO4 [Omacetaxine] (10000 nM)")
2.58
>>> reported_result("CN(c1ccccc1CNc1nc(Nc2ccc3c(c2)CC(=O)N3)ncc1C(F)(F)F)S(C)(=O)=O (10000 nM)")
4.8

* * *

Measured normalised response accompanies every entry in the list below.
# Test system: HCC1937
# PROCEDURE_DETAILS: normalised response (% of control), CellTiter-Glo; higher = more viable cells (100 = DMSO, 0 = benzethonium chloride kill control)
# PROTOCOL_CONDITIONS: incubation time: 72 h
RECORDED_METRIC: normalised response (%)

>>> reported_result("CN1CCN(c2ccc3nc(-c4c(N)c5c(F)cccc5[nH]c4=O)[nH]c3c2)CC1 [Dovitinib] (1000 nM)")
94.7
>>> reported_result("CCOc1cc2ncc(C#N)c(Nc3ccc(OCc4ccccn4)c(Cl)c3)c2cc1NC(=O)/C=C/CN(C)C [Neratinib] (1 nM)")
96.7
>>> reported_result("COc1cccc2c1C(=O)c1c(O)c3c(c(O)c1C2=O)C[C@@](O)(C(C)=O)C[C@@H]3O[C@H]1C[C@H](N)[C@H](O)[C@H](C)O1 [Daunorubicin] (1 nM)")
99.9
>>> reported_result("Cc1cc(C(C)Nc2ccccc2)c2nc(N3CCOCC3)cc(=O)n2c1 (centres undefined) [TGX-221] (1 nM)")
97.6

* * *

# System: MDA-MB-231
# PROCEDURE_DETAILS: normalised viability (% of control), CellTiter-Blue; higher = more viable cells (about 100 = DMSO control)
# PROTOCOL_CONDITIONS: 100 nM; incubation time: 72 h
Below, each of the molecules is paired with its reported normalised viability value.
RECORDED_METRIC: normalised viability (%)

>>> reported_result("COC1=CC(c2cc3ccccc3[nH]2)=N/C1=C\\c1[nH]c(C)cc1C [Obatoclax]")
47.7
>>> reported_result("COc1cc(Nc2ncc(F)c(Nc3ccc4c(n3)NC(=O)C(C)(C)O4)n2)cc(OC)c1OC [R406]")
102
>>> reported_result("C[C@@]1(C(=O)Nc2ccc(F)nc2)CCCN1c1nc(Nc2cc(C3CC3)n[nH]2)c2cccn2n1")
93.8
>>> reported_result("CN1CCN(c2ccc3nc(-c4c(N)c5c(F)cccc5[nH]c4=O)[nH]c3c2)CC1 [Dovitinib]")
80.2
>>> reported_result("O=P(O)(NCCCl)NCCCl [Ifosfamide mustard]")
95.6
>>> reported_result("O=c1[nH]c(=O)n([C@H]2C[C@H](O)[C@@H](CO)O2)cc1F [Floxuridine]")
97.4

* * *

# System: HCC1599
# PROCEDURE_DETAILS: drug sensitivity score (DSS), CellTiter-Glo (DSS (AUC-based score)); higher = stronger drug effect (viability inhibition or cytotoxicity); extreme values may be limits of the assay
# PROTOCOL_CONDITIONS: incubation time: 72 h
Measured drug sensitivity score by item
RECORDED_METRIC: drug sensitivity score

>>> reported_result("O=C(c1ccc(OCCN2CCCCC2)cc1)c1c(-c2ccc(O)cc2)sc2cc(O)ccc12")
1.37
>>> reported_result("CC(C)C[C@H](NC(=O)[C@H](Cc1ccccc1)NC(=O)c1cnccn1)B(O)O")
9.67
>>> reported_result("COC(=O)C[C@](O)(CCCC(C)(C)O)C(=O)O[C@@H]1C(OC)=C[C@]23CCCN2CCc2cc4c(cc2[C@H]13)OCO4")
26.7
>>> reported_result("COc1cc(Nc2ncc(F)c(Nc3ccc4c(n3)NC(=O)C(C)(C)O4)n2)cc(OC)c1OC")
0
>>> reported_result("CC(C)(C)c1cc(NC(=O)Nc2ccc(-c3cn4c(n3)sc3cc(OCCN5CCOCC5)ccc34)cc2)no1")
0
>>> reported_result("C[C@@H]1C=C2C(=O)O[C@@H]3CC[C@H](C1)[C@]23O")
0
>>> reported_result("FC(F)c1nc2ccccc2n1-c1nc(N2CCOCC2)nc(N2CCOCC2)n1")
2.33
>>> reported_result("Cn1c(=O)c(F)c(Nc2ccc(I)cc2F)c2c(=O)n(C[C@@H](O)CO)cnc21")
0
>>> reported_result("CS(=O)(=O)OCCCCOS(C)(=O)=O")
0

* * *

# System: HCC1937
# PROCEDURE_DETAILS: normalised viability (% of control), CellTiter-Blue; higher = more viable cells (about 100 = DMSO control)
# PROTOCOL_CONDITIONS: 10 nM; incubation time: 72 h
Each item that follows carries a reported normalised viability.
RECORDED_METRIC: normalised viability (%)

>>> reported_result("CC(=O)O[C@H]1C(=O)[C@@]2(C)[C@H]([C@H](OC(=O)c3ccccc3)[C@]3(O)C[C@H](OC(=O)[C@H](O)[C@@H](NC(=O)c4ccccc4)c4ccccc4)C(C)=C1C3(C)C)[C@]1(OC(C)=O)CO[C@@H]1C[C@@H]2O")
36.4
>>> reported_result("CCOc1cc2ncc(C#N)c(Nc3ccc(OCc4ccccn4)c(Cl)c3)c2cc1NC(=O)/C=C/CN(C)C")
106
>>> reported_result("Cn1c(=O)c(F)c(Nc2ccc(I)cc2F)c2c(=O)n(C[C@@H](O)CO)cnc21")
100
